Data origin: patent US10815275B2

- Tested on: red blood cells
- PROTOCOL: Hemolytic activity on red blood cells
- Format: cell-based, mouse
- Protocol: In order to identify, through red blood cell hemolytic activity in mice, whether the peptoids synthesized in Preparation Example 1 are cytotoxic, red blood cells isolated from 10 mL of mouse blood were washed three times with phosphate-buffered saline (PBS, mixed solution of 35 mM phosphate buffer/150 mM NaCl, pH 7.4), and then centrifuged at a centrifugal force of 1,000 ×g for 10 minutes. […]
Non-standard residues stand in square brackets, D forms with d. Residues, ends and D or L forms follow the SMILES beside them. Nspe = C[C@H](NCC(=O)O)c1ccccc1; Nphe = O=C(O)CNCc1ccccc1; Nlys = NCCCCNCC(=O)O
QUANTITY: HD10
Number only, please.

IN: Find the recorded HD10 belonging to C[C@@H](c1ccccc1)N(CC(=O)N(CCCCN)CC(=O)N(CC(=O)N(CC(=O)N(CCCCN)CC(=O)N(CC(=O)N(CC(=O)N(CCCCN)CC(=O)N(CC(=O)N(CC(=O)N(CCCCN)CC(N)=O)[C@@H](C)c1ccccc1)[C@@H](C)c1ccccc1)[C@@H](C)c1ccccc1)[C@@H](C)c1ccccc1)[C@@H](C)c1ccccc1)[C@@H](C)c1ccccc1)C(=O)CN(C(=O)CNCCCCN)[C@@H](C)c1ccccc1 [compound 22] (H-[Nlys][Nspe][Nspe][Nlys][Nspe][Nspe][Nlys][Nspe][Nspe][Nlys][Nspe][Nspe][Nlys]-NH2) and report it.
OUT: 19.5

IN: Which value of HD10 has been reported for C[C@@H](c1ccccc1)N(CC(=O)N(CCCCN)CC(=O)N(CC(=O)N(CC(=O)N(CCCCN)CC(=O)N(CC(=O)N(CC(N)=O)Cc1ccccc1)Cc1ccccc1)[C@@H](C)c1ccccc1)[C@@H](C)c1ccccc1)C(=O)CN(Cc1ccccc1)C(=O)CN(CCCCN)C(=O)CN(Cc1ccccc1)C(=O)CN(Cc1ccccc1)C(=O)CNCCCCN [compound 15] (H-[Nlys][Nphe][Nphe][Nlys][Nphe][Nspe][Nlys][Nspe][Nspe][Nlys][Nphe][Nphe]-NH2) in the records?
OUT: 26.8

IN: Please look up its HD10: C[C@@H](c1ccccc1)N(CC(N)=O)C(=O)CN(Cc1ccccc1)C(=O)CN(CCCCN)C(=O)CN(Cc1ccccc1)C(=O)CN(Cc1ccccc1)C(=O)CN(CCCCN)C(=O)CN(Cc1ccccc1)C(=O)CN(Cc1ccccc1)C(=O)CN(CCCCN)C(=O)CN(Cc1ccccc1)C(=O)CN(C(=O)CNCCCCN)[C@@H](C)c1ccccc1 [compound 12]
OUT: 79.7

* * *

- System: red blood cells
- PROTOCOL: Hemolytic activity on red blood cells
- Format: cell-based, mouse
Non-standard residues stand in square brackets, D forms with d. Residues, ends and D or L forms follow the SMILES beside them. Nspe = C[C@H](NCC(=O)O)c1ccccc1; Nphe = O=C(O)CNCc1ccccc1; Nlys = NCCCCNCC(=O)O
QUANTITY: HD50

IN: Query: HD50; subject: C[C@@H](c1ccccc1)N(CC(=O)N(CCCCN)CC(=O)N(CC(=O)N(CC(=O)N(CCCCN)CC(=O)N(CC(=O)N(CC(N)=O)Cc1ccccc1)Cc1ccccc1)Cc1ccccc1)Cc1ccccc1)C(=O)CN(Cc1ccccc1)C(=O)CN(CCCCN)C(=O)CN(Cc1ccccc1)C(=O)CN(Cc1ccccc1)C(=O)CNCCCCN [compound 6] (H-[Nlys][Nphe][Nphe][Nlys][Nphe][Nspe][Nlys][Nphe][Nphe][Nlys][Nphe][Nphe]-NH2)
OUT: 185.4

IN: For C[C@@H](c1ccccc1)N(CC(=O)N(CC(=O)N(CCCCN)CC(=O)N(CC(=O)N(CC(=O)N(CCCCN)CC(=O)N(CC(=O)N(CC(=O)N(CCCCN)CC(=O)N(CC(=O)N(CC(N)=O)Cc1ccccc1)Cc1ccccc1)Cc1ccccc1)Cc1ccccc1)Cc1ccccc1)Cc1ccccc1)Cc1ccccc1)C(=O)CNCCCCN [compound 3] (H-[Nlys][Nspe][Nphe][Nlys][Nphe][Nphe][Nlys][Nphe][Nphe][Nlys][Nphe][Nphe]-NH2) , what is its reported HD50?
OUT: > 200

IN: Reported HD50, compound C[C@@H](c1ccccc1)N(CC(=O)N(CC(=O)N(CCCCN)CC(=O)N(CC(=O)N(CC(N)=O)Cc1ccccc1)Cc1ccccc1)Cc1ccccc1)C(=O)CN(CCCCN)C(=O)CN(Cc1ccccc1)C(=O)CN(Cc1ccccc1)C(=O)CN(CCCCN)C(=O)CN(Cc1ccccc1)C(=O)CN(Cc1ccccc1)C(=O)CNCCCCN [compound 7] (H-[Nlys][Nphe][Nphe][Nlys][Nphe][Nphe][Nlys][Nspe][Nphe][Nlys][Nphe][Nphe]-NH2) : ____
OUT: > 200

IN: # query: HD50 of entry C[C@@H](c1ccccc1)N(CC(N)=O)C(=O)CN(Cc1ccccc1)C(=O)CN(CCCCN)C(=O)CN(Cc1ccccc1)C(=O)CN(Cc1ccccc1)C(=O)CN(CCCCN)C(=O)CN(Cc1ccccc1)C(=O)CN(Cc1ccccc1)C(=O)CN(CCCCN)C(=O)CN(Cc1ccccc1)C(=O)CN(C(=O)CNCCCCN)[C@@H](C)c1ccccc1
OUT: > 200

IN: Endpoint output: HD50 of C[C@@H](c1ccccc1)N(CC(=O)N(CCCCN)CC(=O)N(CC(=O)N(CC(=O)N(CCCCN)CC(=O)N(CC(=O)N(CC(N)=O)Cc1ccccc1)Cc1ccccc1)[C@@H](C)c1ccccc1)[C@@H](C)c1ccccc1)C(=O)CN(C(=O)CN(CCCCN)C(=O)CN(Cc1ccccc1)C(=O)CN(Cc1ccccc1)C(=O)CNCCCCN)[C@@H](C)c1ccccc1 [compound 16] (H-[Nlys][Nphe][Nphe][Nlys][Nspe][Nspe][Nlys][Nspe][Nspe][Nlys][Nphe][Nphe]-NH2) . Value?
OUT: > 200
